The measured values listed here are drawn from PubChem BioAssay (NCI).

System: HL-60(TB) leukemia
Test: NCI tumour cell line growth inhibition, 48 h; in the data active = GI50 below about 0.43 µM; inactive = the rest
Classes used: 1 (yes) (active), 0 (no) (inactive)

[[record]]
molecule = "N#CC1=C(N)Oc2c(sc3c(Br)cccc23)C1c1ccc(Cl)cc1 (stereo not given)"
category_label = "1 (yes)"

[[record]]
molecule = "O=C([CH-]C(=O)c1ccccc1)c1ccccc1.O=C([CH-]C(=O)c1ccccc1)c1ccccc1.O=C([CH-]C(=O)c1ccccc1)c1ccccc1.[Cl-].[Hf+4]"
category_label = "0 (no)"

[[record]]
molecule = "NC(=O)c1cc(Br)ccc1NC(=O)/C=C/c1ccccc1"
category_label = "0 (no)"

[[record]]
molecule = "CC/C=C\\C[C@H](O)C/C=C1/C(=O)C=C[C@@H]1C/C=C\\CCCCO"
category_label = "0 (no)"

[[record]]
molecule = "COc1ccc2c(c1)C(c1cc(OC)c3c(c1)OCO3)C1=C(COC1=O)N2 (stereo not given)"
category_label = "1 (yes)"

